Form field: phosphorylation enrichment (one value per entry).
target: Fyn (UniProt P06241); experiment: phosphorylation enrichment, bacterial display (enrichment ratio); higher = better substrate or ligand; peptides without Tyr show the background;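 note: 11-residue human phosphosite peptides and single-mutation variants displayed on the E. coli surface, counted by deep sequencing, each peptide's frequency after selection divided by its frequency in the unselected input library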;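 note: frequency after pTyr selection over input frequency; kinase dosed for 20-30% of maximal phosphorylation in three min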
Sequence (P06241 whole entry, looked up): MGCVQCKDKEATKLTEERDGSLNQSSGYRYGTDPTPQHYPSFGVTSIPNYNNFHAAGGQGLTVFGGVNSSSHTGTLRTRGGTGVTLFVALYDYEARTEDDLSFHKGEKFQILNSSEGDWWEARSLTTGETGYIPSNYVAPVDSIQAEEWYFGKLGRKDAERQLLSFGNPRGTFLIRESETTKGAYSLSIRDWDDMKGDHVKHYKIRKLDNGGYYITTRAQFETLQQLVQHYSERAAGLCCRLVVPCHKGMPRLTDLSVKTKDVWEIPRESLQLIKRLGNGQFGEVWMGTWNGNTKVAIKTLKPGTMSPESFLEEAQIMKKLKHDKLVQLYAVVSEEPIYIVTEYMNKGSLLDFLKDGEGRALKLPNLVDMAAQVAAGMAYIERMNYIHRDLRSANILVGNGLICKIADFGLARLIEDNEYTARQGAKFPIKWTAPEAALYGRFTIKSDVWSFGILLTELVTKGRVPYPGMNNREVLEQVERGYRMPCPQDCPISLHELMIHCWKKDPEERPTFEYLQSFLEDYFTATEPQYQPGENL
The response must contain the number and no unit.

seq.string | target.desc | phosphorylation enrichment
NESVDYRATFP [MET_Y1003] | Fyn (UniProt P06241) | 0.472

Let's switch to this sequence now.
Ask | Looking for the measured phosphorylation enrichment of YMLYQYLKQIE [RPAP3_Y569_D564Y] , can you help?
Reply | 1.56

* * *

biological target: Fyn (UniProt P06241); assay: phosphorylation enrichment, bacterial display (enrichment ratio); higher = better substrate or ligand; peptides without Tyr show the background
# if value of phosphorylation enrichment reaches 0.7, tag 1; if it stays below, tag 0

Ask | Identify whether the reported phosphorylation enrichment of the following sequence is 0.7 or greater: LRVHSYKSMQP [DRC7_Y516]
Reply | 0

Ask | Similarly, QAINEYEKWLE [MAP9_Y603] ?
Reply | 1

Ask | Similarly, IFRASYFRKGG [ALK_Y1282_YF] ?
Reply | 0

Ask | Similarly, YGSGNYNDFGN [HNRNPA2B1_Y300] ?
Reply | 0

Ask | Similarly, FIATQYSLCPR [LBR_Y166_R169C_YF] ?
Reply | 0

Ask | Similarly, QQLVAYYSKHA [SRC_Y232] ?
Reply | 1

Ask | Similarly, GKAFIYASHIV [ZNF573_Y229] ?
Reply | 0

Ask | Similarly, SSFSGYIMMPN [LEF1_Y114_YF] ?
Reply | 0

Ask | Similarly, QDDYSYPSRQM [LDLR_Y847_G844D] ?
Reply | 1

Ask | Similarly, FMFKVYSDPQP [FGFR1_Y280_C277Y_YF] ?
Reply | 0

Ask | Similarly, GLAELYEYKKK [CKAP5_Y1854] ?
Reply | 0

Ask | Similarly, YYSSEYHYVGG [CTSC_Y345] ?
Reply | 1

Ask | Similarly, RPFFLYVAFHD [SGSH_Y174] ?
Reply | 0

Ask | Similarly, VGSIEYLKREW [KCNMA1_Y885] ?
Reply | 0

* * *

Form field: phosphorylation enrichment (one value per entry).
molecular target: Fyn (UniProt P06241); experiment: phosphorylation enrichment, bacterial display (enrichment ratio); higher = better substrate or ligand; peptides without Tyr show the background
The response must contain the number and no unit.

Check out these entries, answers already filled in.
seq.string | target.desc | reported.property | assay.value
TTTQAYRVNER [PRKN_Y391_D394N] | Fyn (UniProt P06241) | phosphorylation enrichment | 0.324
NGSKAYAFVHF [PABPC5_Y147_G146A_YF] | Fyn (UniProt P06241) | phosphorylation enrichment | 0.442
DVLPEYKLQAP [KCNH2_Y388] | Fyn (UniProt P06241) | phosphorylation enrichment | 0.53
ATGMEYLASQK [FGFR2_Y616_R612T] | Fyn (UniProt P06241) | phosphorylation enrichment | 0.559
QTLTDYDTRFF [CSNK2A3_Y131_I133T_YF] | Fyn (UniProt P06241) | phosphorylation enrichment | 0.702

Ask | Looking for the measured phosphorylation enrichment of IGCHAYGDQYR [IDH1_Y135_R132C] , can you help?
Reply | 0.424

Ask | Similarly, RSDEDYLCREE [POR_Y573_Y575C] ?
Reply | 0.716

Ask | Similarly, EPFELYCEMGS [CBL_Y371_Q367P_YF] ?
Reply | 1.26

Ask | Similarly, ANFAKYGNPNE [BCHE_Y505] ?
Reply | 0.307

* * *

test system: c-Src; experiment: phosphorylation enrichment, bacterial display (enrichment ratio); higher = better substrate or ligand; peptides without Tyr show the background
Form field: phosphorylation enrichment (one value per entry).
The response must contain the number and no unit.

seq.string | phosphorylation enrichment
NKEAICSGYIR [SMCHD1_Y283_Y283C] | 0.399
VRTGIYHGGKP [PIK3CA_Y361_E365K] | 0.318
NNKKDYYDMYE [SLC26A3_Y526_K521N] | 0.591
SETSRYLSELF [KCNJ3_Y67_D70E] | 0.346
MSRNLYSGDYY [DDR2_Y736] | 5.09
TGNGFYFRVFS [MYBPC3_Y1136_I1131T_YF] | 0.374

Ask | Looking for the measured phosphorylation enrichment of FTGNTYRVGDT [FN1_Y106_YF] , can you help?
Reply | 0.476

* * *

tested on: c-Abl (mouse); experiment: phosphorylation enrichment, bacterial display (enrichment ratio); higher = better substrate or ligand; peptides without Tyr show the background
# if value of phosphorylation enrichment reaches 0.5, tag Condition met; if it stays below, tag Condition not met

seq.string | group.label
GSCQEYTGAPY [NAXD_Y85_G81S] | Condition met
AAVDEYLEHRR [FAM221A_Y17_Y20H] | Condition met
FEGAIYRKDVG [GART_Y417] | Condition not met
QLRPGYIPIPV [BAG3_Y93] | Condition met

Ask | Identify whether the reported phosphorylation enrichment of the following sequence is 0.5 or greater: QNRELYSEGLG [CNKSR1_Y665]
Reply | Condition met

Ask | Similarly, KEGSAYGSQSV [NFKB2_Y868_D865G] ?
Reply | Condition met

Ask | Similarly, NDQANYLLNTD [ADA_Y290_S291L] ?
Reply | Condition met

Ask | Similarly, ALAPKYHGGGG [HBB_Y146_H144P] ?
Reply | Condition not met

Ask | Similarly, LSAPEYGPKLK [TBC1D14_Y46] ?
Reply | Condition not met

Ask | Similarly, SHPSSYTTHPQ [NIPBL_Y195] ?
Reply | Condition not met

* * *

tested on: c-Abl (mouse); experiment: phosphorylation enrichment, bacterial display (enrichment ratio); higher = better substrate or ligand; peptides without Tyr show the background
Form field: phosphorylation enrichment (one value per entry).

Check out these entries, answers already filled in.
seq.string | target.desc | phosphorylation enrichment
LANNEYYFRVC | c-Abl (mouse) | 0.573
VVQGIYGFHHF [UFSP2_Y285_YF] | c-Abl (mouse) | 5.3
HIKHNYECLVY [XRCC5_Y416] | c-Abl (mouse) | 0.882
GGFTCCCDGKK [PROS1_Y266_Y266C_YF] | c-Abl (mouse) | 0.977
VSTAVYKRFPS [BEST1_Y148] | c-Abl (mouse) | 0.668
LVRAFYCERRR [CARD11_Y970] | c-Abl (mouse) | 0.597
GITVAYTIPKK [UBA5_Y372] | c-Abl (mouse) | 0.702
QITQVCGFYDE [PPP2CA_Y127_Y127C] | c-Abl (mouse) | 1.08
CEDGTYSPEIS [PTDSS1_Y424] | c-Abl (mouse) | 0.838
ELANYYKLHHI [AK7_Y391] | c-Abl (mouse) | 0.565

Ask | Looking for the measured phosphorylation enrichment of AQRKLYRNVML [ZNF569_Y33] , can you help?
Reply | 0.482

Ask | Similarly, DGKYSYLKVGH [GRM3_Y480_G475D] ?
Reply | 0.284

Ask | Similarly, RKETFYTLSCR [GUCY2C_Y681] ?
Reply | 1.29

Ask | Similarly, MTFQNYRQALF [FAM20C_Y279_G280R] ?
Reply | 0.657

* * *

molecular target: Jak2 (UniProt O60674); test: phosphorylation enrichment, bacterial display (enrichment ratio); higher = better substrate or ligand; peptides without Tyr show the background
Sequence (O60674 whole entry, looked up): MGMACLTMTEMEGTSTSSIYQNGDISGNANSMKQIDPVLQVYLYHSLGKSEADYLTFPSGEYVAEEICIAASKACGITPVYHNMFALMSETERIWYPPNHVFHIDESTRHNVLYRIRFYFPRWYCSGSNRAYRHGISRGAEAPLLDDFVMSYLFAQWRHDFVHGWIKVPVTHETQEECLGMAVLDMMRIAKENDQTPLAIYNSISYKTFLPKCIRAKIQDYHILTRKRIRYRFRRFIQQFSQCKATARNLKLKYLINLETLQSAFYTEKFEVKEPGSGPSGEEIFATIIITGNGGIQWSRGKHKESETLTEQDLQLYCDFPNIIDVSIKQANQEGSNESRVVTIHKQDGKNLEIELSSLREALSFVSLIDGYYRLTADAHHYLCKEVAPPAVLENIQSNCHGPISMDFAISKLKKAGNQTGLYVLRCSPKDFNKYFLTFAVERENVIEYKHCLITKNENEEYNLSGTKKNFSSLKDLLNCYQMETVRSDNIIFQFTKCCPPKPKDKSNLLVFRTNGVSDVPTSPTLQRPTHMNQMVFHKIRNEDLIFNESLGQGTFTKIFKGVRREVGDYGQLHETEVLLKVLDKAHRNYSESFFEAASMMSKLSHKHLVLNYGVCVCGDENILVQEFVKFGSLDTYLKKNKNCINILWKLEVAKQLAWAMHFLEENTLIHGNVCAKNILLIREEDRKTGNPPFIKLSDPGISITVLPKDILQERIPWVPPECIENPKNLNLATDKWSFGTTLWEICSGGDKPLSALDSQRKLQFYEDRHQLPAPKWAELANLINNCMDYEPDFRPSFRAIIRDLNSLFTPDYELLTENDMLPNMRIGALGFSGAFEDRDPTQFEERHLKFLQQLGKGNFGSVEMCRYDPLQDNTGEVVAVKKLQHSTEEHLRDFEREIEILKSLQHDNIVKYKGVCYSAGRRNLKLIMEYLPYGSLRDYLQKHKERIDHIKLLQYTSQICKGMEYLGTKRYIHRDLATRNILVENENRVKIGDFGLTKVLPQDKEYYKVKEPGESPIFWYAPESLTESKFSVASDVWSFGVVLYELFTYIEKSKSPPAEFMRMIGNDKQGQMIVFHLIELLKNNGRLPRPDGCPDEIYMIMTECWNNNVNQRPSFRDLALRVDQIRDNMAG
Form field: phosphorylation enrichment (one value per entry).

seq.string | target.desc | phosphorylation enrichment
RRNTFYASIAK [ACADM_Y353_YF] | Jak2 (UniProt O60674) | 0.511
ADKAAYLQSLN [MYH2_Y389] | Jak2 (UniProt O60674) | 0.777
IFGVSYDEYRY [CFTR_Y512] | Jak2 (UniProt O60674) | 0.882
AGRSGYDNREI [BCL2_Y9_T7S] | Jak2 (UniProt O60674) | 0.52
QMQAAYQKVVA [HBD_Y131] | Jak2 (UniProt O60674) | 0.497

Ask | Looking for the measured phosphorylation enrichment of LADMNYVHCDL [EPHB2_Y742_R745C] , can you help?
Reply | 0.728

Ask | Similarly, VSTAVYKRFPS [BEST1_Y148] ?
Reply | 0.593

Ask | Similarly, PFTRNYYVQAV [CYBA_Y87_R90Q] ?
Reply | 1.17

Ask | Similarly, EEGNPSYSSAR [MCCC2_Y520_Y520S] ?
Reply | 0.776

Ask | Similarly, FRVAGYETQGG [TIA1_Y383_YF] ?
Reply | 0.722

Ask | Similarly, IDDNQYAYLKA [HNF4A_Y286_E285Q] ?
Reply | 0.753

Ask | Similarly, PRDSGYSFETI [MAP1B_Y1921_S1917R_YF] ?
Reply | 2.36

Ask | Similarly, KWRGQYDVANK [BTK_Y425_I429N] ?
Reply | 0.6

Ask | Similarly, QPEDIYHQTWA [GBA_Y244_G241E] ?
Reply | 0.955

These data points were gathered from the supplement of paper PMC10065799.
